# key: entry, value: normalized growth
Measurement Protocol: chemical genetic growth profiling, strain panel (AID 1159580);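 further: tested at 20 µM; growth read once vehicle control cultures reached saturation at 30 °C; 1 = growth at the plate median or of vehicle wells; lower values mean less growth of the strain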
Stated Conditions: S. cerevisiae deletion strains, growth OD, locus YNR049C, strain mso1, active compounds read low
Hit rate of the full screen: of about 5,500 compounds, about 2,000 (36%) were called active. About 18% were inconclusive and are not listed. Some of the results follow.

Compound: NC(CO)C(=O)NNCc1ccc(O)c(O)c1O (stereo unspecified)
normalized growth: 0.99
--
Compound: C=C1C(=O)O[C@@H]2C3O[C@]3(C)CC/C=C(\C)CC[C@@H]12 (stereo partly specified)
normalized growth: 0.997
--
Compound: C=C1C(=O)O[C@@H]2C[C@@]3(C)CCC[C@H](C)C3=C[C@H]12
normalized growth: 0.903
--
Compound: COC(=O)C1=CCCN(C)C1
normalized growth: 0.995
--
Compound: CC(C)C(C)/C=C/C(C)[C@H]1CCC2C3=CCC4CC(=O)CC[C@]4(C)C3CC[C@@]21C (stereo partly specified)
normalized growth: 1
--
Compound: CC1(C)NC(=O)N(c2ccc([N+](=O)[O-])c(C(F)(F)F)c2)C1=O
normalized growth: 0.984
--
Compound: C=C1C(=O)OC2CC1C(OC(C)=O)C/C(C)=C/CC/C(C)=C/CC[C@]2(C)O (stereo partly specified)
normalized growth: 0.994
--
Compound: CO[C@@]1(NC(=O)CSCC#N)C(=O)N2C(C(=O)O)=C(CSc3nnnn3C)CSC21 (stereo partly specified)
normalized growth: 0.975
--
Compound: CC(=O)OC1CCC2(C)C(=CC=C3C2CCC2(C)C3CCC2C(C)/C=C/C(C)C(C)C)C1(C)C (stereo unspecified)
normalized growth: 1.02
--
Compound: NC(=O)c1cccc(N)c1
normalized growth: 0.965
--
Compound: CC1OC1P(=O)(O)O (stereo unspecified)
normalized growth: 1
